Tested on: HACAT
Assay: qHTS assay to identify novel small-molecules to repurpose for Merkel cell carcinoma treatment (AID 1296009); note: nearly all actives have a fitted effect of over 60% in size
Conditions: MCC and control cell lines, CellTiter-Glo viability, 72 h; at 44.8 µM (top of the series) unless noted
Records with an inconclusive call do not appear. Calls of active or inactive are those of the source. Calls come from the whole dose curve; as a rule, active = well fitted inhibition curve with a large enough effect; inconclusive = small, poorly fitted or top-dose-only effect; inactive = flat fitted curve, though single readings scatter.
quantity-measured: outcome

Observe how each entry below is paired with its result.
{"compound": "CC1(CO)CC(O)C2(C)CCC3(C)C(=CCC4C5(C=O)CCC(OC6OC(C(=O)O)C(O)C(O)C6OC6OC(C(=O)O)C(O)C(O)C6O)C(C)(C)C5CCC43C)C2C1 (configuration not stated)", "outcome": "inactive [at 9.27 µM]"}
{"compound": "CC(=O)C1CCC(=O)N1Cc1ccccc1 (configuration not stated)", "outcome": "inactive"}
{"compound": "CC(=O)O[C@H]1[C@H](O[C@H]2CC[C@]34C[C@]35CC[C@]3(C)[C@@H]([C@@]6(C)CC[C@@H](C(C)(C)O)O6)[C@@H](O)C[C@@]3(C)[C@@H]5C[C@H](O[C@@H]3O[C@H](CO)[C@@H](O)[C@H](O)[C@H]3O)[C@H]4C2(C)C)OC[C@@H](OC(C)=O)[C@@H]1O", "outcome": "inactive"}
{"compound": "COc1ccc(CC(=O)NCc2ccccc2-c2ccccc2C(=O)NCCc2cccnc2)cc1", "outcome": "inactive"}
{"compound": "CC/C=C\\C(O)C(O)C1=C(C)C(=O)C2(O1)C(=O)NC(OC)(C(=O)c1ccccc1)C2O (configuration not stated)", "outcome": "inactive [at 17.4 µM]"}
{"compound": "CC(=O)O[C@@H]1[C@H](O[C@@H]2OC[C@](O)(CO)[C@H]2O)[C@@H](O[C@@H]2O[C@@H](C)[C@H](O)[C@@H](O[C@@H]3O[C@H](CO)[C@@H](O)[C@H](O)[C@H]3O)[C@H]2O)[C@H](OC(=O)[C@]23CCC(C)(C)C[C@H]2C2=CCC4[C@@]5(C)C[C@H](O)[C@H](O[C@@H]6O[C@H](C(=O)O)[C@@H](O)[C@H](O)[C@H]6O)[C@@](C)(C(=O)O)C5CC[C@@]4(C)[C@]2(C)CC3)O[C@@H]1C (some centres not stated)", "outcome": "inactive [at 9.27 µM]"}
{"compound": "CCc1nn(CCO)c(CC)c1Oc1cc(C#N)cc(C#N)c1", "outcome": "inactive"}
{"compound": "Cc1cc(-n2c(=O)[nH]c(=O)n(C)c2=O)ccc1Oc1ccc(SC(F)(F)F)cc1", "outcome": "inactive"}

Could you now look at the following compound, please?
Report outcome for C[C@H](/C=C/[C@@]1(O)[C@H](C)CC(=O)CC1(C)C)O[C@@H]1O[C@H](CO[C@@H]2OC[C@@H](O)[C@H](O)[C@H]2O)[C@@H](O)[C@H](O)[C@H]1O tested on HACAT.
inactive [at 17.4 µM]
